target: T1, human ROR1 extracellular domain (ECD) protein (human, UniProt Q01973 30-406); test: competitive phage ELISA: soluble ROR1 against ROR1-coated plate
T1 construct: also called hROR1-ECD; human ROR1-ECD
T1 sequence (Q01973 30-406 limits assumed): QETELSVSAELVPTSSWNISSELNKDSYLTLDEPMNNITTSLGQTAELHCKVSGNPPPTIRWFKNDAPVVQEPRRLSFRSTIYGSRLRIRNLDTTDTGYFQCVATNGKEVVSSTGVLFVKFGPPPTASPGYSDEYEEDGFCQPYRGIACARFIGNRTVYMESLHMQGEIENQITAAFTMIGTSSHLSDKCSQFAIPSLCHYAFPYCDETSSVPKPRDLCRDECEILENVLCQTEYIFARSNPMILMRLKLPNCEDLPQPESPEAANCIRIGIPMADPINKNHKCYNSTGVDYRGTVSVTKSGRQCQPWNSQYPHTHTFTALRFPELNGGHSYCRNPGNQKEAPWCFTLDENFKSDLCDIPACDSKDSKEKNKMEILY
pIC50: −log10 of the molar value.
ASSAY_METRIC: pIC50

binder="P601-28 (scFv, V domains shown) VH: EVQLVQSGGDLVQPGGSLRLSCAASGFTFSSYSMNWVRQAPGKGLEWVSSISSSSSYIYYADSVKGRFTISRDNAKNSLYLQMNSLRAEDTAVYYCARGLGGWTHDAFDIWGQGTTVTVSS VL: QSALTQPASVSGSPGQSITISCTGTSSDVGGYNYVSWYQQHPGKAPKLMIFDVSNRPSGVSNRFSGSKSGNTASLTISGLQAEDEADYYCSSYTSSSTLFGGGTKLTVL" value=8.09
binder="P601-37 (scFv, V domains shown) VH: EVQLVQSGAEVKKPGASVKVSCKASGYTFNNYGFSWVRQAPGQGLEWMGWISVYNGNTNYAQKLQGRVTMTTDTSTSTAYMELRSLRSDDTAVYYCARDYYSDSSGYWDDAFDIWGQGTMVTVSS VL: AIRMTQSPSSLSASVGDRVTITCQASQDISNYLNWYQQKPGKAPKLLIYAASSLQSGVPSRFSGSGSGTDFTLTISSLQPEDFATYYCQQSYSTPFTFGPGTKVDIK" value=7.55
binder="P601-6 (scFv, V domains shown) VH: EVQLVESGGGLVKPGGSLKLSCAASGFTFSDYYMGWVRQAPGKGLKWLSYISDRAHTIYDTHSVKGRFTISRDDAKSSLYLRMNNLRVEDTAVYYCARAVGAGEGFDYWCQGTLVTVSS VL: DIQMTQSPSSLSASVGDRVTITCQASQDIRNYLNWYQQKPGKAPKLLIYAASNLETGVPSRFSGSGSGTDFTFTISSLQPEDIATYYCQQDDNLPLTFGGGTKLEIK" value=8.67
